From: patent US20140073700A1

system: IFNγ-Induced NO Production in RAW 264.7 cells; assay: Nitric Oxide Suppression Assay (suppression of IFNγ-induced NO production); type: cell-based; conditions: RAW264.7; RAW 264.7 mouse macrophage cells, 20 ng/mL interferon gamma, Griess detection; single curve fit to mean data of n=2-3
Attribute: pIC50
Note on pIC50: it is the negative log10 of concentration, concentration in mol/L.

Sample answers from the record:
Request: So what does the record say about pIC50 for CC1(C)C(=O)C(C#N)=C[C@]2(C)C3=CC(=O)[C@]4(O)[C@@H]5C[C@@](C)(C(=O)NCc6ccnnc6)CC[C@]5(C)CC[C@@]4(C)[C@]3(C)CC[C@@H]12 ?
Response: 7.30

Request: So what does the record say about pIC50 for CC1(C)C(=O)C(C#N)=C[C@]2(C)C3=CC(=O)[C@]4(O)[C@@H]5C[C@@](C)(C(=O)NCc6ccco6)CC[C@]5(C)CC[C@@]4(C)[C@]3(C)CC[C@@H]12 ?
Response: 7.99

Request: So what does the record say about pIC50 for CC1(C)C(=O)C(C#N)=C[C@]2(C)C3=CC(=O)[C@]4(O)[C@@H]5C[C@@](C)(C(=O)N6CCCC6)CC[C@]5(C)CC[C@@]4(C)[C@]3(C)CC[C@@H]12 ?
Response: 7.71

Others:
Request: So what does the record say about pIC50 for CC1(C)C(=O)C(C#N)=C[C@]2(C)C3=CC(=O)[C@]4(O)[C@@H]5C[C@@](C)(C(=O)NCc6cccnn6)CC[C@]5(C)CC[C@@]4(C)[C@]3(C)CC[C@@H]12 ?
Response: 7.55

Request: So what does the record say about pIC50 for CC(C)CNC(=O)[C@@]1(C)CC[C@]2(C)CC[C@@]3(C)[C@]4(C)CC[C@H]5C(C)(C)C(=O)C(C#N)=C[C@]5(C)C4=CC(=O)[C@]3(O)[C@@H]2C1 ?
Response: 8.06

Request: So what does the record say about pIC50 for CCC(O)CNC(=O)[C@@]1(C)CC[C@]2(C)CC[C@@]3(C)[C@]4(C)CC[C@H]5C(C)(C)C(=O)C(C#N)=C[C@]5(C)C4=CC(=O)[C@]3(O)[C@@H]2C1 (stereo partly drawn) ?
Response: 7.27
